B1: CPEB3 Ribozyme (parent)
chain: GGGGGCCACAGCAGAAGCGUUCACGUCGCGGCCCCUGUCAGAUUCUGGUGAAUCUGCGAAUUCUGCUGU

Variants of: B1
Experiment: self-cleavage, relative activity (ratio to wild type); higher = more cleavage; co-transcriptional
readout_name: self-cleavage
Number, no unit, nothing else.

Need self-cleavage of G14C G31A , thanks.
0.228

Need self-cleavage of G47A A52G , thanks.
0.969

Need self-cleavage of G25U G58A , thanks.
0.214

Need self-cleavage of G5A C63U , thanks.
0.915

Need self-cleavage of G19U C66G , thanks.
0.27

Need self-cleavage of G2A U21C , thanks.
0.0698

Need self-cleavage of G37U C54G , thanks.
0.168

Need self-cleavage of C29U A51G , thanks.
0.537

Need self-cleavage of G11A C24G , thanks.
0.16

Need self-cleavage of G11U U64A , thanks.
0.467

Need self-cleavage of C18G U49G , thanks.
0.217

Need self-cleavage of A40G A59C , thanks.
0.568

Need self-cleavage of G4A G11A , thanks.
0.672

Need self-cleavage of A60C U67A , thanks.
0.358

Need self-cleavage of C34G U67C , thanks.
0.766

Need self-cleavage of C57G U64C , thanks.
0.38

Need self-cleavage of C7U C57U , thanks.
0.305

Need self-cleavage of G25U U53G , thanks.
0.226

Need self-cleavage of A8G C33U , thanks.
0.833

Need self-cleavage of G25C U38A , thanks.
0.176

Need self-cleavage of G31C G47C , thanks.
0.271

Need self-cleavage of A13G G50U , thanks.
0.973

Need self-cleavage of G31U U53G , thanks.
0.411

Need self-cleavage of U49C A59G , thanks.
0.985

Need self-cleavage of G11A C12A , thanks.
0.74

Need self-cleavage of C39G C54A , thanks.
0.561

Need self-cleavage of U38C A42C , thanks.
0.885

Need self-cleavage of A15G G25A , thanks.
0.127

Need self-cleavage of C33U G48U , thanks.
1.03

Need self-cleavage of G2A U46A , thanks.
0.202

Need self-cleavage of C35U U61G , thanks.
0.854

Need self-cleavage of G3C U53G , thanks.
0.0664

Need self-cleavage of U26A C34G , thanks.
0.501

Need self-cleavage of U21A G25C , thanks.
0.249

Need self-cleavage of G5A A60G , thanks.
0.515

Need self-cleavage of U21A G25A , thanks.
0.244

Need self-cleavage of C7G C39G , thanks.
0.236

Need self-cleavage of G31U C39G , thanks.
0.437

Need self-cleavage of G1C G25U , thanks.
0.0853

Need self-cleavage of A15C C66A , thanks.
0.357

Need self-cleavage of C22U C27G , thanks.
0.215

Need self-cleavage of C34A C63A , thanks.
0.495

Need self-cleavage of A52U C63A , thanks.
0.789

Need self-cleavage of G4U A60U , thanks.
0.219

Need self-cleavage of C12U U36A , thanks.
0.231

Need self-cleavage of A15C G30A , thanks.
0.392
